Catalogue of compounds with associated IC50
System: MDA-MB-231
PROTOCOL_DESCRIPTION: Cytotoxicity against human MDA-MB-231 cells by after 48 hrs by MTT assay
Type: functional, cell-based
MEASUREMENT_SETUP: MDA-MB-231, 48 h

Examples from the recorded data:
| ENTRY_SMILES | ENDPOINT_RESULT |
| --- | --- |
| O=c1ccoc2cc(OCc3cn(Cc4ccc(Cl)cc4Cl)nn3)ccc12 | > 100 µM |
| N#Cc1cccc(Cn2cc(COc3ccc4c(=O)ccoc4c3)nn2)c1 | > 100 µM |
| Cc1ccccc1Cn1cc(COc2ccc3c(=O)ccoc3c2)nn1 | > 100 µM |
| O=c1ccoc2cc(OCc3cn(Cc4ccc(Cl)cc4)nn3)ccc12 | > 100 µM |
| O=c1ccoc2cc(OCc3cn(Cc4ccc(Br)cc4)nn3)ccc12 | > 100 µM |

Using the record for C/C(=C\COc1ccc2ccc(=O)oc2c1)C1=CC(=O)C(C)(C)O1 , report its IC50.
9.88 µM

Follow-up item: Cc1cccc(Cn2cc(COc3ccc4c(=O)ccoc4c3)nn2)c1
16 µM

Follow-up item: N#Cc1ccc(Cn2cc(COc3ccc4c(=O)ccoc4c3)nn2)cc1
> 100 µM

Follow-up item: C#CCOc1ccc2c(=O)ccoc2c1
> 100 µM

Follow-up item: O=c1ccoc2cc(OCc3cn(Cc4cccc([N+](=O)[O-])c4)nn3)ccc12
> 100 µM

Follow-up item: O=c1ccoc2cc(OCc3cn(Cc4cccc(Br)c4)nn3)ccc12
> 100 µM
